Tested on: UACC-257
Test: NCI tumour cell line growth inhibition, 48 h
The source made the active and inactive calls. Cut-off read from the data, not from the text of the source: active = GI50 up to about 1.1 µM and inactive = higher.
The following compounds are listed with their measured GI50 values.

>>> reported_measurement("CCOC(=O)c1cnc2c(ccc3ncccc32)c1OCC")
"> 100 µM (inactive)"

May I ask what GI50 has been recorded for O=C1CSC2(CC(/C=C/c3cccs3)=NN2c2cccc(S(=O)(=O)O)c2)N1c1nc2ccccc2s1 (stereo unspecified) ?
> 100 µM (inactive)

May I ask what GI50 has been recorded for N#C/C(=C\c1ccc(F)cc1)c1nc(-c2cc3ccccc3oc2=O)cs1 ?
20.7 µM (inactive)

May I ask what GI50 has been recorded for COc1ccc(-c2cc(-c3ccc(O)cc3O)c(C#N)c(=O)[nH]2)cc1 ?
19.5 µM (inactive)

May I ask what GI50 has been recorded for CC1(C)OC[C@@H]([C@@]2(COC(c3ccccc3)(c3ccccc3)c3ccccc3)CC=CC(=O)O2)O1 ?
43.5 µM (inactive)

May I ask what GI50 has been recorded for NNC(=O)Cn1ccnn1 ?
> 100 µM (inactive)

----------
System: LOX IMVI
Assay: NCI tumour cell line growth inhibition, 48 h
Activity calls are given as the source filed them. Cut-off read from the data, not from the text of the source: active = GI50 up to about 1.1 µM and inactive = higher.
Mark one answer only. Choices: active, inactive

>>> cat("CCCC1C(=O)CCc2c(OC)ccc(OC)c21 (stereo not given)")
"inactive"
>>> cat("CCCNC1=C2CC(C)CC(OC)[C@@H](O)[C@H](C)/C=C(\\C)C(OC(N)=O)C(OC)/C=C\\C=C(/C)C(=O)NC(=CC1=O)C2=O (stereo not given in full)")
"active"
>>> cat("CCOC(=O)C1=CC(C)(C(=O)OCC)Nc2c(nc(SC)n(C)c2=O)N1 (stereo not given)")
"inactive"

Recorded call for Cc1cccc(NC2=NC(=O)C(CC(=O)Nc3ccc(Cl)cc3C)S2)c1 (stereo not given) ?
inactive

----------
The following molecules are listed with their measured GI50 values.
Tested on: 786-0
Assay: NCI tumour cell line growth inhibition, 48 h
The source made the active and inactive calls. No stated cut-off is given here; in the data, active = GI50 up to about 1.1 µM and inactive = higher.

Below, each entry is followed by its recorded GI50 result.
>>> reported_measurement("CCOC(=O)C1C(c2ccc(OC)cc2)c2c(nn(-c3ccccc3)c2O)CC1(C)O (stereo unspecified)")
"> 100 µM (inactive)"
>>> reported_measurement("C=C(C=O)[C@@H]1C2OC(=O)C(=C)[C@@H]2CC(O)[C@@]1(C)CC (stereo partly specified)")
"3.32 µM (inactive)"
>>> reported_measurement("CN(C)c1ccc(C(C#N)NNC(=O)Cc2ccccc2)cc1 (stereo unspecified)")
"> 100 µM (inactive)"

Query molecule follows.
May I ask what GI50 has been recorded for NC(CCCNc1cccc(O)c1)C(=O)O (stereo unspecified) ?
> 100 µM (inactive)

----------
The following compounds are listed with their measured GI50 values.
Tested on: UACC-62
Test: NCI tumour cell line growth inhibition, 48 h
Active and inactive are the calls of the source. Rule as the data show it: active = GI50 up to about 1.1 µM and inactive = higher.

>>> reported_measurement("CO/N=C\\c1cc(O)c(O)c(/C=N/OC)c1")
"38.8 µM (inactive)"
>>> reported_measurement("Nc1ccn(C2CCC(CO)O2)c(=S)n1 (stereo unspecified)")
"> 100 µM (inactive)"
>>> reported_measurement("CC[N+]1(C)CCC(O)(c2ccc(OC)cc2)C(C(=O)c2ccc(OC)cc2)C1 (stereo unspecified)")
"18.8 µM (inactive)"
>>> reported_measurement("COc1ccc(-n2nnc3c(C#N)c(C)c(-c4ccccc4)n3c2=O)cc1")
"4.41 µM (inactive)"
>>> reported_measurement("CCOC(=O)CSC1NC(C(=O)OC)CC1OC (stereo unspecified)")
"> 100 µM (inactive)"

May I ask what GI50 has been recorded for O=C1CCCN(c2ccccc2)N1 ?
> 100 µM (inactive)

May I ask what GI50 has been recorded for N#CCc1nc(-c2cc3c(ccc4ccccc43)oc2=O)cs1 ?
21.7 µM (inactive)
